Reference source: the Human Domainome abundance scans (Beltran et al. 2025)

B1: Cyclin-F, residues 28 to 80; numbered along this chain, P41002 (parent)
chain: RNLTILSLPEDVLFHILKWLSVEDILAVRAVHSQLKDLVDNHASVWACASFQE

Variants of: B1
PROCEDURE_SUMMARY: abundance fitness (aPCA) (normalised: wild type 0, dead -1); higher = more abundant; growth selection in yeast, the domain comes from the species named
CONDITION_SET: Homo sapiens
Classification field: enter yes (1) for abundance fitness values not below -0.4, no (0) for values below it.

Check this variant for abundance fitness at or above -0.4: `F14V`
yes (1)

Check this variant for abundance fitness at or above -0.4: `L17C`
yes (1)

Check this variant for abundance fitness at or above -0.4: `A49C`
yes (1)
